System: ATP;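 also: ATP exposure 15 min at 22 °C before imaging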
Test: switch fluorescence ratio, 500 uM ATP over buffer (Cy3 cluster intensity, sum of 5 cycles each) (fold (ratio)); higher = stronger signal-on switching upon ATP binding; sequences stand for … in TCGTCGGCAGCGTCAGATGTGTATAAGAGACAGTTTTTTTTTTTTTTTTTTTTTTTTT…TC
Details: aptamer strand: ATP DNA aptamer (quencher-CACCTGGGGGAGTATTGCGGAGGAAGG + anchor), 100 nM annealed; ATP concentration: 500 uM
What switch fluorescence ratio was measured for each of the following?
Give bare numbers.

{"query.sequence": "GCGTATGAGA", "result.number": 1.02}
{"query.sequence": "CGGGGGGTTG", "result.number": 0.984}
{"query.sequence": "TACAGCAGGG", "result.number": 1.04}
{"query.sequence": "CGGGTTTAAC", "result.number": 0.998}
{"query.sequence": "AACCTCATGC", "result.number": 1.17}
{"query.sequence": "TCCGGACCGG", "result.number": 0.995}

Quick one: give me switch fluorescence ratio for each item below, same order please.
1. TCCCATAAGC
2. TTTACATGCG
3. AAGGTTTCGT

Result:
[1.1, 0.935, 1]

Where these numbers come from: the supplement of paper PMC10126150
